Source: ChEMBL document CHEMBL4393723

Test system: FaDu
protocol-text: Cytotoxicity against human FADU cells measured after 96 hrs by SRB assay
Type: cell-based
study-conditions: Homo sapiens, FaDu
The reader will find reported pEC50 values listed item by item below.
As a rule, pEC50 stands for the negative log10 of the concentration, concentration in M.

[[record]]
compound = "COc1ccc(/C=C/C(=O)OCCc2ccccc2)cc1OC"
assay_target = "FaDu"
value_reported = 4.76


Query block: Under FaDu: pEC50 value of O=C(/C=C/c1ccc(O)c(O)c1)OCCc1ccccc1 [CAFFEIC ACID PHENETHYL ESTER] ?
Result block: 4.92

----------
assay-target: Acetylcholinesterase (Electrophorus electricus)
protocol-text: Mixed inhibition of electric eel AChE using acetylcholine iodide as substrate preincubated for 20 mins followed by substrate addition and measured every minute for 30 mins by Lineweaver-Burk plot analysis
The reader will find reported pKi values listed item by item below.
As a rule, pKi stands for the negative log10 of the concentration, concentration in M.

Query block: # query: pKi of entry O=C(/C=C/c1ccc(OCc2ccccc2)c(OCc2ccccc2)c1)OCCc1ccc(OC(=O)/C=C/c2ccc(OCc3ccccc3)c(OCc3ccccc3)c2)c(OC(=O)/C=C/c2ccc(OCc3ccccc3)c(OCc3ccccc3)c2)c1
Result block: 6.14

----------
Test system: MCF7
protocol-text: Cytotoxicity against human MCF7 cells measured after 96 hrs by SRB assay
Assay type: cell-based
study-conditions: Homo sapiens, MCF7, 96 h
The reader will find reported pEC50 values listed item by item below.
As a rule, pEC50 stands for the negative log10 of the concentration, concentration in M.

[[record]]
molecule_smiles = "COc1ccc(/C=C/C(=O)OCCc2ccccc2)cc1OC"
assay_target = "MCF7"
value_reported = 4.79


Query block: # query: pEC50 of entry O=C(/C=C/c1ccc(O)c(O)c1)OCCc1ccccc1
Result block: 4.92

----------
assay-target: Acetylcholinesterase (Electrophorus electricus)
protocol-text: Mixed inhibition of electric eel AChE using butyrylcholine iodide as substrate preincubated for 20 mins followed by substrate addition and measured every minute for 30 mins Dixon/Cornish-Bowden plot analysis
The reader will find reported pKi values listed item by item below.
As a rule, pKi stands for the negative log10 of the concentration, concentration in M.

[[record]]
molecule_smiles = "COc1cc(/C=C/C(=O)OCCc2ccccc2)cc(OC)c1OCCc1ccccc1"
assay_target = "Acetylcholinesterase (Electrophorus electricus)"
value_reported = 5.61


Query block: # query: pKi of entry O=C(/C=C/c1cccc(Cl)c1)OCCc1ccccc1
Result block: 4.25

Query block: Queued: O=C(/C=C/c1ccc(OCc2ccccc2)c(OCc2ccccc2)c1)OCCc1ccc(OC(=O)/C=C/c2ccc(OCc3ccccc3)c(OCc3ccccc3)c2)c(OC(=O)/C=C/c2ccc(OCc3ccccc3)c(OCc3ccccc3)c2)c1
Result block: 5.74

Query block: Queued: O=C(/C=C/c1cccc(Br)c1)OCCc1ccccc1
Result block: 4.51

Query block: Queued: COc1ccc(/C=C/C(=O)OCCc2ccccc2)c(OC)c1
Result block: 4.46

Query block: Queued: O=C(/C=C/c1ccc(OCc2ccccc2)c(OCc2ccccc2)c1)OCCc1ccccc1O
Result block: 4.92

----------
assay-target: Acetylcholinesterase (Electrophorus electricus)
protocol-text: Mixed inhibition of electric eel AChE using acetylcholine iodide as substrate preincubated for 20 mins followed by substrate addition and measured every minute for 30 mins by Lineweaver-Burk plot analysis
pKi: −log10 of the molar value.
Cut-off 5 on pKi, inclusive. At or above means Criterion met; below means Criterion not met.

[[record]]
molecule_smiles = "O=C(/C=C/c1cccc(Cl)c1)OCCc1ccccc1"
cat = "Criterion not met"


Query block: Confirm if pKi reported for the molecule COc1cc(/C=C/C(=O)OCCc2ccccc2)cc(OC)c1OCCc1ccccc1 is 5 or above.
Result block: Criterion met

----------
assay-target: Acetylcholinesterase (Electrophorus electricus, UniProt O42275)
Sequence (O42275 whole entry): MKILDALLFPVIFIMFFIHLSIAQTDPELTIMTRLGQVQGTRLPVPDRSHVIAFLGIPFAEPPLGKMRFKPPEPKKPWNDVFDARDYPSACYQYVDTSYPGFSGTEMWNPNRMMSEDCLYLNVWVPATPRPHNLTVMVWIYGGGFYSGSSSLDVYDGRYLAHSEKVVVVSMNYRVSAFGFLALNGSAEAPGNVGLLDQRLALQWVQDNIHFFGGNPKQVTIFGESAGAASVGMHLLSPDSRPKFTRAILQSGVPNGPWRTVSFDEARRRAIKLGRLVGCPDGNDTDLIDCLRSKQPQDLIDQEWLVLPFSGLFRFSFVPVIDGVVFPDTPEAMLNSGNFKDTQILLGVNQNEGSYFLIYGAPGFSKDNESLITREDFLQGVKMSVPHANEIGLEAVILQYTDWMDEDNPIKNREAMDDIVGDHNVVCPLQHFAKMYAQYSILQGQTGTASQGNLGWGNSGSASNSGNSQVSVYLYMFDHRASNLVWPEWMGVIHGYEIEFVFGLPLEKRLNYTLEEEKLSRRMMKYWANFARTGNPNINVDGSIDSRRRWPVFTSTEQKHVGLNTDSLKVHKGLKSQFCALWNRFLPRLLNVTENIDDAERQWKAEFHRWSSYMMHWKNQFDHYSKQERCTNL
protocol-text: Mixed inhibition of electric eel AChE using acetylcholine iodide as substrate preincubated for 20 mins followed by substrate addition and measured every minute for 30 mins by Lineweaver-Burk plot analysis
The reader will find reported Ki values listed item by item below.
Note: state the figure and append the unit.

[[record]]
molecule_smiles = "COc1ccc(/C=C/C(=O)OCCc2ccccc2)c(OC)c1"
assay_target = "Acetylcholinesterase (Electrophorus electricus, UniProt O42275)"
value_reported = "11.9 µM"


Query block: # query: Ki of entry O=C(/C=C/c1ccc(OCc2ccccc2)c(OCc2ccccc2)c1)OCCc1ccccc1O
Result block: 8.55 µM

Query block: Queued: O=C(/C=C/c1cccc(Br)c1)OCCc1ccccc1
Result block: 8.82 µM
